Where these numbers come from: patent US7883859B2

- Tested on: acetylcholinesterase
- Protocol: Color change of the bioassay element against pesticides, judged by human eyes (FIG. 6)
- Assay type: biochemical
- Condition notes: color changes from yellow to yellowish
Endpoint name: concentration to discriminate the color change by human eyes

Recorded concentration to discriminate the color change by human eyes of COP(=O)(OC)OC(Br)C(Cl)(Cl)Br (centres unmarked) , please.
about 1 ppm

Follow-up item: CCOC(=O)CC(SP(=S)(OC)OC)C(=O)OCC (centres unmarked)
about 1 ppm

Same question, "CNC(=O)Oc1cccc2ccccc12" this time
about 3 ppm

Try COP(=O)(OC)C(O)C(Cl)(Cl)Cl (centres unmarked) next.
about 3 ppm
